Would you mind telling me the reported % of intact complex, Cysteine, 3 h of each entry?
# assay.name: Stability assay with cysteine (1000:1 Cys-to-ligand)
# Format: physicochemical
# condition: 37 °C, 3 h
# output: bare number, implied unit %

QUERY: Could you tell me which % of intact complex, Cysteine, 3 h is on file for CNC(=O)CN1CCN(CCSC)CCN(CCSC)CCN(CCSC)CC1.[64Cu+2] [[^64Cu][Cu(DO3SAm)]^2+] ?
RESULT: 83

QUERY: Ok, now CSCCN1CCN(CCSC)CCN(CCSC)CCN(CCSC)CC1.[64Cu+2] [[^64Cu][Cu(DO4S)]^2+]
RESULT: 100

QUERY: Ok, now CSCCN1CCN(CC(=O)[O-])CCN(CCSC)CCN(CC(=O)[O-])CC1.[64Cu+2] [[^64Cu][Cu(DO2A2S)]]
RESULT: 85

QUERY: Ok, now CSCCN1CCNCCN(CCSC)CCN(CCSC)CC1.[64Cu+2] [[^64Cu][Cu(DO3S)]^2+]
RESULT: 100
